- System: MDA-MB-231 cells
- EXPERIMENT DESCRIPTION: Uptake in the presence of OCT and MATE inhibitors, MDA-MB-231 cells
- Type: in vitro ADME, human
- CONDITIONS: compound and inhibitor 400 and 800 µmol/L, 10 min, 37 °C
ASSAY READOUT: uptake in the presence of disopyramide, MDA-MB-231

CN(C)C(=N)N=C(N)NS(=O)(=O)c1ccc(Br)cc1 = significantly decreased
CN(C)C(=N)N=C(N)NS(=O)(=O)c1ccccc1Br = significantly decreased

----------
- Test system: MCF-7 cells
- EXPERIMENT DESCRIPTION: Cell viability WST-1 assay, MCF-7
- Format: cell-based
- CONDITIONS: Homo sapiens, MCF7; WST-1, 24 h, mean ± SD (n = 6–8); read-out: IC50 inhibition of MCF-7 cells' viability
Kindly state log10(IC50) for each of the entries shown.
Heads up, the numbers here are log10 of IC50 in µM units.

Examples with their reported log10(IC50) follow.
CN(C)C(=N)N=C(N)NS(=O)(=O)c1ccc(F)cc1 [Compound 9] = 2.63
CN(C)C(=N)N=C(N)NS(=O)(=O)c1cccc(F)c1 [Compound 8] = 2.23
CN(C)C(=N)N=C(N)NS(=O)(=O)c1ccc(Cl)cc1 [Compound 3] = 3.16
CN(C)C(=N)N=C(N)NS(=O)(=O)c1cccc(Br)c1 [Compound 5] = 2.03

Next molecule, please.
Problem: Which log10(IC50) is reported with MCF-7 cells for this entry: CN(C)C(=N)N=C(N)NS(=O)(=O)c1ccccc1Cl [Compound 1] ?
Result: 1.10
